target: human MCH-1 receptor (Homo sapiens, UniProt Q99705); construct: expressed in transfected cells; host or cells: transiently transfected COS-7 cells or stably transfected CHO cells (pcDNA3.1); assay: Radioligand binding assay ([125I]-MCH competition, whole cells); conditions: competition with [125I]-MCH; COS-7 or CHO cells expressing human MCH-1 receptor
Sequence (Q99705 whole entry): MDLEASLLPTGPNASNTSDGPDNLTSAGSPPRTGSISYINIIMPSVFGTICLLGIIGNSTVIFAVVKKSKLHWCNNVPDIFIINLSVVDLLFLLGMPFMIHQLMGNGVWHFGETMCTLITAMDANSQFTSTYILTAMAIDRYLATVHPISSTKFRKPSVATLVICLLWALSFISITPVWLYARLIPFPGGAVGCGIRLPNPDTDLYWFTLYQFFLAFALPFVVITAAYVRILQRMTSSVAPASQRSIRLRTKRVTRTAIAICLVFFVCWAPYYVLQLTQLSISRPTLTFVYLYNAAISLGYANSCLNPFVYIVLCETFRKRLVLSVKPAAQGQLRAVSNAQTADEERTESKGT
value-type: IC50 (nM)

compound="COc1cc(NC(=O)Nc2ccc(Oc3ccccc3)cc2)ccc1C(=O)NC1CCN(Cc2ccccc2)CC1 [Ex 16]" value_type=IC50 reading=220
compound="COc1cc(NC(=O)Nc2ccc(Nc3ccc(C(F)(F)F)cc3)cc2)ccc1C(=O)NCCCN1CCOCC1 [Ex 139]" value_type=IC50 reading=1410
compound="COc1cc(NC(=O)Nc2ccc(Oc3ccccc3)cc2)ccc1C(=O)NCCCN1CCCCC1 [Ex 95]" value_type=IC50 reading=44

Data origin: patent US20060235035A1
